experimental system: Scl-70抗原 (人DNA拓扑异构酶I的C末端片段的70kD分子量蛋白) (human) (UniProt P11387)
assay protocol: chemiluminescence immunoassay on Scl-70-coated magnetic microspheres, ABEI-anti-human IgG; CHO supernatant diluted 200-fold
value kind: 稀释200倍RLU
Include the unit after the number when you answer.

These recorded examples may help you get a feel for the data.
[
  {
    "binder": "抗体1 (实施例11; 2D6抗体) (antibody, human IgG1, kappa, V domains shown) VH: EIQLVQSGSEVVRTGTSVKLSCKASGYRFTSYWMHWVKQRPGQGLEWIGNINPGDGRTNYDENFKNKATLTVDPSSNTAYMQLNSLTSEDSAVYYCTRDGNYGIFDYWGRGTSVTVSS VL: NIVMTQSPSSLVVSAGEKVTLSCKSSQSLLYSSNQKNYLAWFQQKPGQSPKLLIYWASTRESGVPDRFTGSGSRTDFTLTISSVQAEDMAVYYCHQYIYLWSFGGGSKLEIER",
    "value kind": "稀释200倍RLU",
    "observed": "55400 RLU"
  },
  {
    "binder": "抗体6 (实施例16) (antibody, human IgG1, kappa, V domains shown) VH: EVKLVESGGGLVQPGGSRKLSCAASGFTFSSYWMHWVRQAPEKGLEWVANINPGDGRTNYDENFKNRFTISRDNPENTLFLQMTSLTSEDTAIYYCARRAAYGNYDWYFDVWGAGTTVTVSS VL: NIVMTQSPSSLVVSAGEKVTLSCKSSQSLLYSSNQKNYLAWFQQKPGQSPKLLIYWASTRESGVPDRFTGSGSRTDFTLTISSVQAEDMAVYYCHQYIYLWSFGGGSKLEIER",
    "value kind": "稀释200倍RLU",
    "observed": "43500 RLU"
  },
  {
    "binder": "抗体4 (实施例14) (antibody, human IgG1, kappa, V domains shown) VH: EVKLVESGGGLVQPGGSRKLSCAASGFTFSSYWMHWVRQAPEKGLEWVAYISSGGITIYYADTVKGRFTISRDNPENTLFLQMTSLTSEDTAIYYCARRAAYGNYDWYFDVWGAGTTVTVSS VL: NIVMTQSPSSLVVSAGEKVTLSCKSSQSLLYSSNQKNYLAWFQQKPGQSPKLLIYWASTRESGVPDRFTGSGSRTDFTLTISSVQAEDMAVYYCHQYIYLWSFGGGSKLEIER",
    "value kind": "稀释200倍RLU",
    "observed": "85700 RLU"
  }
]

Moving on to another binder below.
## Input Returns the measured 稀释200倍RLU for the input binder. Input: 抗体5 (实施例15) (antibody, human IgG1, kappa, V domains shown) VH: EIQLVQSGSEVVRTGTSVKLSCKASGYRFTSYWMHWVKQRPGQGLEWIGNINPGDGRTNYDENFKNKATLTVDPSSNTAYMQLNSLTSEDSAVYYCTRDGNYGIFDYWGRGTSVTVSS VL: DIELTQSPSSLVVSAGEKVTLSCKSSQSLLYSSNQKNYLAWFQQKPGQSPKLLIYWASTRGSGVPDRFTGSGSRTDFTLTISSVQAEDMAVYYCHQYIYLWSFGGGTKLEIKR
## Output 59200 RLU
